run description: Hygroscopicity by dynamic vapor sorption (DVS) at 25° C.
Type: physicochemical
experimental setup: DVS 25° C., 90% RH, 1st sorption

{"compound": "CCOc1cc(C(=O)N(C)Cc2cnc(CO)c3cn[nH]c23)ccc1-c1cc(F)cc(F)c1 [Free form Pattern A]", "unit info": "%", "Sorp. (%)": 4.33}
{"compound": "CCOc1cc(C(=O)N(C)Cc2cnc(CO)c3cn[nH]c23)ccc1-c1cc(F)cc(F)c1.O=P(O)(O)O [Phosphate salt Pattern A]", "unit info": "%", "Sorp. (%)": 0.61}
{"compound": "CCOc1cc(C(=O)N(C)Cc2cnc(CO)c3cn[nH]c23)ccc1-c1cc(F)cc(F)c1.[Na] [Sodium salt Pattern A]", "unit info": "%", "Sorp. (%)": 4.13}
{"compound": "CCOc1cc(C(=O)N(C)Cc2cnc(CO)c3cn[nH]c23)ccc1-c1cc(F)cc(F)c1.Cl [HCl salt Pattern A]", "unit info": "%", "Sorp. (%)": 1.37}

* * *

Attribute: Sorp. (%)
run description: Hygroscopicity by dynamic vapor sorption (DVS) at 25° C.
Format: physicochemical
experimental setup: DVS 25° C., 20% RH, 2nd sorption
experimental readout: Sorp. (%)

{"compound": "CCOc1cc(C(=O)N(C)Cc2cnc(CO)c3cn[nH]c23)ccc1-c1cc(F)cc(F)c1.O=P(O)(O)O [Phosphate salt Pattern A]", "unit info": "%", "numeric value": 0.13}
{"compound": "CCOc1cc(C(=O)N(C)Cc2cnc(CO)c3cn[nH]c23)ccc1-c1cc(F)cc(F)c1 [Free form Pattern A]", "unit info": "%", "numeric value": 3.45}
{"compound": "CCOc1cc(C(=O)N(C)Cc2cnc(CO)c3cn[nH]c23)ccc1-c1cc(F)cc(F)c1.[Na] [Sodium salt Pattern A]", "unit info": "%", "numeric value": 0.21}
{"compound": "CCOc1cc(C(=O)N(C)Cc2cnc(CO)c3cn[nH]c23)ccc1-c1cc(F)cc(F)c1.Cl [HCl salt Pattern A]", "unit info": "%", "numeric value": 0.24}

* * *

run description: Hygroscopicity by dynamic vapor sorption (DVS) at 25° C.
Format: physicochemical
experimental setup: DVS 25° C., 40% RH, 1st sorption
Protocol: Dynamic vapor sorption (DVS) was performed on an Intrinsic, Advantage or Adventure with an oven temperature of 25° C. using water as a solvent. The sample mass was about 5-10 mg using the following method: • Cycle: 40-0-95-0-40% RH • Stage Step: 10% • Equilibrium: 0.002 dm/dt (%/min) • Minimum dm/dt stability duration: 60 min • Maximum dm/dt stage time: 360 min. Hygroscopicity of free form Pattern B was evaluated by dynamic vapor sorption (DVS) test at 25° C. […]

{"compound": "CCOc1cc(C(=O)N(C)Cc2cnc(CO)c3cn[nH]c23)ccc1-c1cc(F)cc(F)c1 [Free form Pattern A]", "Sorp. (%)": 3.87}
{"compound": "CCOc1cc(C(=O)N(C)Cc2cnc(CO)c3cn[nH]c23)ccc1-c1cc(F)cc(F)c1.[Na] [Sodium salt Pattern A]", "Sorp. (%)": 0.38}
{"compound": "CCOc1cc(C(=O)N(C)Cc2cnc(CO)c3cn[nH]c23)ccc1-c1cc(F)cc(F)c1.Cl [HCl salt Pattern A]", "Sorp. (%)": 0.75}
{"compound": "CCOc1cc(C(=O)N(C)Cc2cnc(CO)c3cn[nH]c23)ccc1-c1cc(F)cc(F)c1.O=P(O)(O)O [Phosphate salt Pattern A]", "Sorp. (%)": 0.23}
